Documented IC50 across a set of molecules
# Protocol Description: MTT in vitro cytotoxicity assay, MDCK normal cells
# Format: cell-based, canine
# Experimental Conditions: dog, MDCK normal kidney cells, mean ± SD
Observed Property: IC50 (µg/mL)

In [3]: df
Out[3]:
                                   molecule  qualifying_sign  measured_number
0  CNC(=O)c1cc(Cl)cc(C)c1NC(=O)c1ccccc1Nc1cccc(C(F)(F)F)c1                =             21.2
1  CNC(=O)c1cc2ccccc2cc1NC(=O)c1cccnc1Nc1cccc(C(F)(F)F)c1                >               40
2  CC(=O)CNC(=O)c1cccnc1NC(=O)c1ccccc1Nc1cccc(C(F)(F)F)c1                =             13.4
3  NC(=O)c1cccnc1NC(=O)c1cccnc1Nc1cccc(C(F)(F)F)c1                =               13
4  CNC(=O)c1cc(Cl)cc(C)c1NC(=O)c1cccnc1Nc1cccc(C(F)(F)F)c1                >               40
5  CC(O)CNC(=O)c1cccnc1NC(=O)c1cccnc1Nc1cccc(C(F)(F)F)c1 (stereo not drawn)                =             11.6
6  CNC(=O)c1cc2ccccc2cc1NC(=O)c1ccccc1Nc1cccc(C(F)(F)F)c1                >               40
7  CNC(=O)c1cccnc1NC(=O)c1cccnc1Nc1cccc(C(F)(F)F)c1                =             11.1
8  CNC(=O)c1cccnc1NC(=O)c1ccccc1Nc1cccc(C(F)(F)F)c1                >               40

----------
Documented IC50 across a set of compounds
# Protocol Description: MTT in vitro cytotoxicity assay, MDCK normal cells
# Format: cell-based, canine
# Experimental Conditions: dog, MDCK normal kidney cells, mean ± SD
Observed Property: IC50 (µg/mL)

In [3]: df
Out[3]:
                                   compound  observed_property  readout_units  qualifying_sign  measured_number
0  Cc1cc(Cl)cc(C(N)=O)c1NC(=O)c1ccccc1Nc1cccc(C(F)(F)F)c1 [4l]               IC50          µg/mL                >               40
1  NC(=O)c1cc2ccccc2cc1NC(=O)c1cccnc1Nc1cccc(C(F)(F)F)c1 [4j]               IC50          µg/mL                =             14.3
2  CC(O)CNC(=O)c1cccnc1NC(=O)c1ccccc1Nc1cccc(C(F)(F)F)c1 (stereo not shown) [4c]               IC50          µg/mL                =               17
3  O=c1[nH]cc(F)c(=O)[nH]1 [5-FU, 5-Fluorouracil, reference compound]               IC50          µg/mL                =             8.65
4  NC(=O)c1cccnc1NC(=O)c1ccccc1Nc1cccc(C(F)(F)F)c1 [4a]               IC50          µg/mL                >               40
5  NC(=O)c1cc2ccccc2cc1NC(=O)c1ccccc1Nc1cccc(C(F)(F)F)c1 [4n]               IC50          µg/mL                =             14.4
6  Cc1cc(Cl)cc(C(N)=O)c1NC(=O)c1cccnc1Nc1cccc(C(F)(F)F)c1 [4e]               IC50          µg/mL                >               40

----------
# System: A549 (Human lung cancer cell line)
# Protocol Description: MTT in vitro cytotoxicity assay, A549
# Type: cell-based
# Experimental Conditions: 40 µg/mL, preliminary screen (Fig. 4), result in words
Observed Property: Cytotoxic (inhibitory) activity at single concentration, A549

>>> print(df.to_string())
                                   molecule                  result
0  Cc1cc(Cl)cc(C(N)=O)c1NC(=O)c1ccccc1Nc1cccc(C(F)(F)F)c1 [4l]  selective cytotoxicity
1  CNC(=O)c1cc2ccccc2cc1NC(=O)c1cccnc1Nc1cccc(C(F)(F)F)c1 [4k]  selective cytotoxicity
2  Cc1cc(Cl)cc(C(N)=O)c1NC(=O)c1cccnc1Nc1cccc(C(F)(F)F)c1 [4e]  selective cytotoxicity

----------
Documented IC50 across a set of compounds
# Tested on: NCI-H1975 (Human lung cancer cell line)
# Protocol Description: MTT in vitro cytotoxicity assay, NCI-H1975
# Assay type: cell-based
# Experimental Conditions: Homo sapiens; NCI-H1975 cells, MTT assay, mean ± SD
Observed Property: IC50 (µg/mL)

>>> print(df.to_string())
                                   compound  qualifying_sign  measured_number
0  NC(=O)c1cc2ccccc2cc1NC(=O)c1cccnc1Nc1cccc(C(F)(F)F)c1                =             25.2
1  CC(O)CNC(=O)c1cccnc1NC(=O)c1cccnc1Nc1cccc(C(F)(F)F)c1 (centres unmarked)                =             9.15
2  CNC(=O)c1cc(Cl)cc(C)c1NC(=O)c1cccnc1Nc1cccc(C(F)(F)F)c1                >               40
3  CNC(=O)c1cccnc1NC(=O)c1ccccc1Nc1cccc(C(F)(F)F)c1                >               40
4  CNC(=O)c1cccnc1NC(=O)c1cccnc1Nc1cccc(C(F)(F)F)c1                =             12.4
